- tgt: MERTK (UniProt Q12866)
- Sequence (Q12866 whole entry, looked up): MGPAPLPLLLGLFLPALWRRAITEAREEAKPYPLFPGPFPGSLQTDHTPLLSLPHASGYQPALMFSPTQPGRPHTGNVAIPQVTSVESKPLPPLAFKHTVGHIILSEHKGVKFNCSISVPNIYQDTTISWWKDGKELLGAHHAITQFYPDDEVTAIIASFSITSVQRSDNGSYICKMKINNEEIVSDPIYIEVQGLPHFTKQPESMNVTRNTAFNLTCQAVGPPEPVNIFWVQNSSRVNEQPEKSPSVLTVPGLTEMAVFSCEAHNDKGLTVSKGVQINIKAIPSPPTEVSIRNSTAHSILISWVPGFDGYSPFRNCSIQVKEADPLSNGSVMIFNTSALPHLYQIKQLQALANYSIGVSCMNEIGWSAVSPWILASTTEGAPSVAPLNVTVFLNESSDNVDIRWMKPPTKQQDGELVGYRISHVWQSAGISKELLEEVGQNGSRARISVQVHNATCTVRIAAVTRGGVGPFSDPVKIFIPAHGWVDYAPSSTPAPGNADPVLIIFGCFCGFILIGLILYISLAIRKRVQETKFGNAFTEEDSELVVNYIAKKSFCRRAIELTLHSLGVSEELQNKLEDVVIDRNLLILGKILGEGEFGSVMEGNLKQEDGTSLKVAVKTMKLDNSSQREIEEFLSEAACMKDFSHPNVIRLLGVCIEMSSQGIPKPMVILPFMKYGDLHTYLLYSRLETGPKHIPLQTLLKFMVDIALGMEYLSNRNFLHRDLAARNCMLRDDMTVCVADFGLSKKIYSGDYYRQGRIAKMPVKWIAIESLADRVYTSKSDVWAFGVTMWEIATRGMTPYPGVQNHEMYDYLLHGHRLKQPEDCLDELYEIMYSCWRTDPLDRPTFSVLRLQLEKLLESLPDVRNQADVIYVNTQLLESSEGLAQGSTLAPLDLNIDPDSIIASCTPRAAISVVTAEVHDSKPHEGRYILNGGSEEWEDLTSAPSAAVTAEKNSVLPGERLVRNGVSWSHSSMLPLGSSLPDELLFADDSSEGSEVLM
- method-notes: phosphorylation enrichment, bacterial display (enrichment ratio); higher = better substrate or ligand; peptides without Tyr show the background;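 also: 11-residue human phosphosite peptides and single-mutation variants displayed on the E. coli surface, counted by deep sequencing, each peptide's frequency after selection divided by its frequency in the unselected input library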;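 also: frequency after pTyr selection over input frequency; kinase dosed for 20-30% of maximal phosphorylation in three min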
I would appreciate it if you labelled entries 1.0 when phosphorylation enrichment is 0.5 or higher, otherwise 0.0.

sequence-string: VGTKRYMAPKV [ACVRL1_Y375_E379K]
assigned-category: 0.0
--
sequence-string: PVFEVYPLLNC [GATA1_Y78_Q76E]
assigned-category: 1.0
--
sequence-string: SNPAFYVLEGV [INPPL1_Y987_N982S_YF]
assigned-category: 1.0
--
sequence-string: VSFGEYRFRSV [CFTR_Y515_D513G_YF]
assigned-category: 0.0
--
sequence-string: DCAAIYGNEPE [AKR1A1_Y50]
assigned-category: 1.0

Exercise: Threshold query (phosphorylation enrichment >= 0.5) on VSSPKYGGDDE [TMCC2_Y473_S475G]
Key: 0.0

Exercise: Consider next the sequence HNVPIYEGFGL [ACTA1_Y168_A172G_YF] in the same way.
Key: 1.0

Exercise: Consider next the sequence SGRRRYTIAAL [TTR_Y125_P122R] in the same way.
Key: 1.0

Exercise: Consider next the sequence SLALFYRNVFH [RBL1_Y792_K794N_YF] in the same way.
Key: 0.0

Exercise: Consider next the sequence ADIETYLLEKS [MYH7_Y266] in the same way.
Key: 0.0

Exercise: Consider next the sequence NHFKIHNLCAE [PTEN_Y68_Y68H_YF] in the same way.
Key: 0.0

Exercise: Consider next the sequence PVKDPYVMFPQ [PLEKHG2_Y489] in the same way.
Key: 0.0

Exercise: Consider next the sequence GDEVEYMSVSF [GCLC_Y53_L55S] in the same way.
Key: 0.0

Exercise: Consider next the sequence DTLMEYLENPK [CYCS_Y68] in the same way.
Key: 1.0

Exercise: Consider next the sequence WQQQSYLYSGI [CTNNB1_Y30_D32Y] in the same way.
Key: 1.0

Exercise: Consider next the sequence DLTQDYEEWKR [ORC6_Y232] in the same way.
Key: 1.0

Exercise: Consider next the sequence LFEDCYLLGTS [ASS1_Y87_R86C_YF] in the same way.
Key: 0.0

Exercise: Consider next the sequence IQSAKYDMAED [TTC21B_Y1213] in the same way.
Key: 0.0
